# credit: ChEMBL document CHEMBL2169744

- experimentSummary: Solubility of the compound in simulated intestinal fluid
- Format: physicochemical
Given measured solubility, output Yes if it is greater than or equal to 10 µg/mL and No if not.

INSERT INTO measurements (compound, qualitativelabel) VALUES
  ('Cc1nccc(-c2c(Nc3ccn[nH]3)nc3cccnn23)n1', 'Yes'),
  ('Cc1nc(Nc2cnn(C3CCOC3)c2)cc(-c2c(Nc3ccn[nH]3)nc3cccnn23)n1 (configuration not stated)', 'Yes'),
  ('Cc1nc(Nc2ccc(N3CCOCC3)nn2)cc(-c2c(Nc3ccn[nH]3)nc3cccnn23)n1', 'Yes'),
  ('Cc1nc(Nc2cccnc2)cc(-c2c(Nc3ccn[nH]3)nc3cccnn23)n1', 'No'),
  ('Cc1nc(N)nc(-c2c(Nc3cc[nH]n3)nc3ccccn23)n1', 'Yes'),
  ('Cc1nc(N)nc(-c2c(Nc3ccn(C)n3)nc3ccc(-c4cncnc4)cn23)n1', 'No'),
  ('Cc1nc(N)cc(-c2c(Nc3cc[nH]n3)nc3ccccn23)n1', 'Yes'),
  ('COc1cnnc(Nc2cc(-c3c(Nc4cc[nH]n4)nc4cccnn34)nc(C)n2)c1', 'Yes'),
  ('Cc1nc(N)cc(-c2c(Nc3cc[nH]n3)nc3cccnn23)n1', 'Yes'),
  ('Cc1nc(N)nc(-n2c(Nc3ccn[nH]3)nc3ccccc32)n1', 'No'),
  ('CC(=O)Nc1cc(-c2c(Nc3cc[nH]n3)nc3cccnn23)nc(C)n1', 'Yes'),
  ('CNc1cc(-c2c(Nc3cc[nH]n3)nc3cccnn23)nc(C)n1', 'No');
